Field: pest or weed control at 500 g/ha. Provide a value for each of the compounds that follow.
# Tested on: greenhouse red spider mite (Tetranychus urticae)
# experiment: Tetranychus urticae spray test, OP-resistant (TETRUR), bean leaf disks
# Format: in vivo
# protocol-conditions: Tetranychus urticae, foliar, 144 h, application rate 500 g/ha, after 6 days; read-out: efficacy (spider mites killed)

Below: 8 compounds and their reported pest or weed control at 500 g/ha.
CN/C(=N\c1cc(SCC(F)(F)F)c(C)cc1C)c1ccc(Cl)cc1    90%
Cc1cc(F)c(/N=C(/NC2(C)CC2)C(F)(F)F)cc1[S+]([O-])CC(F)(F)F (stereo not drawn)    100%
Cc1cc(C)c(SCC(F)(F)F)cc1/N=C(\NCC(F)F)C1CCCC1    90%
CN/C(=N\c1cc(SCC(F)(F)F)c(Cl)cc1Cl)c1ccccn1    90%
CN/C(=N\c1cc([S+]([O-])CC(F)(F)F)c(C)cc1F)c1ccc(Cl)cc1 (stereo not drawn)    100%
CN/C(=N\c1cc([S+]([O-])CC(F)(F)F)c(C)cc1F)c1cccc(Cl)c1 (stereo not drawn)    100%
Cc1cc(F)c(/N=C2\CCCN2C(C)C(F)(F)F)cc1[S+]([O-])CC(F)(F)F (stereo not drawn)    100%
Cc1cc(F)c(/N=C(\N)c2ccncn2)cc1SCC(F)(F)F    100%

Query compound follows.
The compound identified as N/C(=N/c1ccc(Cl)c(SCC(F)(F)F)c1)C(F)(F)F registered its pest or weed control at 500 g/ha at 90%
